test system: A549 NSCLC; assay: NCI tumour cell line growth inhibition, 48 h
Record form. Attribute: TGI. Fill in for each entry.

# input Form field - read-out: TGI; system: A549 NSCLC; submitted item: COc1cccc(C2SC(C)C(=O)N2CCc2cccs2)c1 (centres undefined)
# output 12.7 µM

# input Form field - read-out: TGI; system: A549 NSCLC; submitted item: COc1nc2c(nc(N)n2C2OCC(O)C(O)C2O)c(=O)n1C (centres undefined)
# output > 100 µM

# input Form field - read-out: TGI; system: A549 NSCLC; submitted item: Cc1ccc(S(=O)(=O)N/N=C2/CCC(C(C)(C)C)CC2Br)cc1 (centres undefined)
# output > 100 µM

# input Form field - read-out: TGI; system: A549 NSCLC; submitted item: O=C(O)CNC(=O)c1ccc2cc(C(=O)N3CC(CCl)c4ccc([N+](=O)[O-])cc43)[nH]c2c1 (centres undefined)
# output > 100 µM

# input Form field - read-out: TGI; system: A549 NSCLC; submitted item: `N=c1oc2ccccc2cc1-c1nc2ccccc2c(=O)[nH]1`
# output > 100 µM

# input Form field - read-out: TGI; system: A549 NSCLC; submitted item: `CC1=CCC[C@H]2[C@](C)(CC3=CC(=O)C(Sc4ccccc4)=CC3=O)[C@@H](C)CC[C@]12C`
# output 33.3 µM

# input Form field - read-out: TGI; system: A549 NSCLC; submitted item: `CNC1=C(C(=O)OC)SC(c2ccccc2)(c2ccccc2)SC1`
# output > 100 µM

# input Form field - read-out: TGI; system: A549 NSCLC; submitted item: `CCC(=O)/C(=C\I)c1ccccc1`
# output 37 µM

# input Form field - read-out: TGI; system: A549 NSCLC; submitted item: `C[n+]1c2ccccc2c(/C=N\NS(=O)(=O)c2ccc(Cl)cc2)c2ccccc21`
# output > 100 µM

# input Form field - read-out: TGI; system: A549 NSCLC; submitted item: `COc1cccc(-c2nccc3c(OCc4ccccc4)c(OC)c(OC)cc23)c1`
# output > 100 µM

# input Form field - read-out: TGI; system: A549 NSCLC; submitted item: `CC(=O)[O-].[Zn].c1ccc(/C(=N\Nc2ccccn2)c2ccccn2)cc1`
# output 5.48 µM

# input Form field - read-out: TGI; system: A549 NSCLC; submitted item: `N[C@H](CCC(=O)NCP(=O)(O)O)C(=O)O`
# output > 100 µM

# input Form field - read-out: TGI; system: A549 NSCLC; submitted item: Fc1ccc2c(c1)C1=C(CO2)C(c2ccc(Cl)cc2)NC(=S)N1 (centres undefined)
# output > 100 µM

# input Form field - read-out: TGI; system: A549 NSCLC; submitted item: `CCOC(=O)c1ccc(N2C(=O)Cc3ccccc3C2=O)cc1`
# output > 100 µM

# input Form field - read-out: TGI; system: A549 NSCLC; submitted item: `Cc1ccc2nc(-c3ccc(N)c4ccccc34)[nH]c2c1`
# output > 46.2 µM

# input Form field - read-out: TGI; system: A549 NSCLC; submitted item: `O=[N+]([O-])c1ccc([N+]2=NC(c3ccccc3)=NN(c3ccccc3)C2)cc1`
# output > 100 µM

# input Form field - read-out: TGI; system: A549 NSCLC; submitted item: `O=c1cccccc1[O-].O=c1cccccc1[O-].O=c1cccccc1[O-].[Ce+3]`
# output > 100 µM

# input Form field - read-out: TGI; system: A549 NSCLC; submitted item: `O=C(N/N=C/c1ccc(Cl)cc1Cl)c1ccc2nc(-c3ccc(Cl)cc3)[nH]c2c1`
# output 4.53 µM

# input Form field - read-out: TGI; system: A549 NSCLC; submitted item: `CCOC(=O)C(=O)CC(=O)C1=C(c2ccccc2OC)CC(c2cccs2)=CC1=O`
# output > 100 µM

* * *

Record form. Attribute: TGI. Fill in for each entry.
test system: KM12 colon; assay: NCI tumour cell line growth inhibition, 48 h

# input Give its TGI value. Item: `O=C1CS[C@@](CC(c2ccc(Cl)cc2)c2ccc(Cl)cc2)(c2ccc(Cl)cc2)N1`
# output > 100 µM

# input Give its TGI value. Item: `FC(F)(F)c1cccc2c(SCCc3n[nH]c(=S)o3)ccnc12`
# output > 100 µM

# input Give its TGI value. Item: `COc1cc(CCN(C)C)cc(OC)c1OC`
# output > 100 µM

# input Give its TGI value. Item: `O=c1oc2c3ccc4cnccc4c3[nH]c2c2ccccc12`
# output > 100 µM

# input Give its TGI value. Item: `NS(=O)(=O)c1ccc(-n2ncc3c(Nc4ccccc4)ncnc32)cc1`
# output 46.7 µM

# input Give its TGI value. Item: `O=C1c2ccccc2-c2c1c1ccc([N+](=O)[O-])cc1c(=O)n2CCCNCCO`
# output 1.76 µM

# input Give its TGI value. Item: OCC(CCc1c[nH]c2ccccc12)c1c[nH]c2ccccc12 (stereo unspecified)
# output 32.5 µM

# input Give its TGI value. Item: `COc1cc(/C=C\c2ccc(Br)cc2)cc(OC)c1OC`
# output > 100 µM

# input Give its TGI value. Item: `CCOC(=O)C(=O)CC(=O)C1=C(c2ccccc2OC)CC(c2cccs2)=CC1=O`
# output > 100 µM

# input Give its TGI value. Item: `N=c1oc2ccccc2cc1-c1nc2ccccc2c(=O)[nH]1`
# output > 100 µM

# input Give its TGI value. Item: `Cc1cc(N(CCCNc2ccnc3cc(Cl)ccc23)Cc2ccc3c(c2)OCO3)nc(N2CCCCC2)n1`
# output 5.39 µM

# input Give its TGI value. Item: `CN(C)CCCCn1ccc2c1C(=O)c1c(c(O)c3ccccc3c1O)C2=O`
# output 24.4 µM

# input Give its TGI value. Item: `CCOC(=O)c1[nH]c2cccc3c2c1CC[C@H](NC(=O)C(F)(F)F)C3=O`
# output > 100 µM

# input Give its TGI value. Item: CCOC(=O)C(NC(=O)CC)(Nc1ccc(F)c(Cl)c1)C(F)(F)F (stereo unspecified)
# output > 100 µM

# input Give its TGI value. Item: `CC(C)C[C@H](NC(=O)CCn1ccc2ncccc2c1=O)B(O)O`
# output 37.7 µM

# input Give its TGI value. Item: `N[C@H](CCC(=O)NCP(=O)(O)O)C(=O)O`
# output > 100 µM

# input Give its TGI value. Item: `Cc1ccccc1C(=O)Oc1ccc(OCc2ccccc2)cc1`
# output > 100 µM

# input Give its TGI value. Item: Cc1ccc(S(=O)(=O)N/N=C2/CCC(C(C)(C)C)CC2Br)cc1 (stereo unspecified)
# output 47 µM

# input Give its TGI value. Item: `CCOC(=O)C(C(=O)OCC)C(=O)c1ccccc1C(=O)c1ccccc1`
# output > 100 µM

# input Give its TGI value. Item: `COc1cccc(CCC(=O)c2cc3c(N)c(C(=O)Nc4cccc(Cl)c4C)sc3nc2C)c1`
# output > 100 µM

# input Give its TGI value. Item: CC(=O)OC(C)(C)CCC(=O)[C@](C)(O)[C@H]1[C@H](O)C[C@@]2(C)[C@@H]3CC=C4C(C)=C(OC5OC(CO)C(O)C(O)C5O)C(=O)C[C@@H]4[C@]3(C)C(=O)C[C@]12C (stereo partly specified)
# output > 100 µM

# input Give its TGI value. Item: `CCNNC(=O)[C@@H]1[C@H](c2cc(OC)c(OC)c(OC)c2)c2cc3c(cc2[C@H](O)[C@H]1CO)OCO3`
# output > 100 µM

# input Give its TGI value. Item: `Cc1cc(O)cc(O)c1C(=O)O[C@]1(C)C(=O)C=C2C=C(/C=C/C(=O)O)OC=C2C1=O`
# output > 100 µM

# input Give its TGI value. Item: `C[n+]1c2ccccc2c(/C=N\NS(=O)(=O)c2ccc(Cl)cc2)c2ccccc21`
# output > 100 µM

# input Give its TGI value. Item: `COc1c(C)c(C/C=C(\C)CC/C=C(\C)CC/C=C(\C)CCC=C(C)C)c(OC)c2ccccc12`
# output > 100 µM

# input Give its TGI value. Item: COC(=O)NC(Cc1ccccc1)NC(C)=O (stereo unspecified)
# output > 100 µM

* * *

Record form. Attribute: TGI. Fill in for each entry.
system: TK-10 renal; assay: NCI tumour cell line growth inhibition, 48 h

# input Give its TGI value. Item: CCN(CC)CCOc1ccc(C(O)(Cc2ccc(OC)cc2)c2ccccc2)cc1 (stereo unspecified)
# output 76.4 µM

# input Give its TGI value. Item: `Cn1ccnc1CCc1ccc(Cl)c(Cl)c1`
# output > 100 µM

# input Give its TGI value. Item: `C=Cc1nc(C#N)c(N)o1`
# output > 100 µM

# input Give its TGI value. Item: `NCc1c(C(N)=O)ncn1Cc1ccccc1`
# output > 100 µM

# input Give its TGI value. Item: O=C1CS(=O)(=O)C(c2cccc(Oc3ccccc3)c2)N1c1ccccc1 (stereo unspecified)
# output 60 µM

# input Give its TGI value. Item: `Cc1ccc(C=NC23CC4CC(CC(C4)C2)C3)cc1`
# output > 100 µM
